SYSTEM_TESTED: T1, GST-DLG2 PDZ domain 2 (Homo sapiens (Human)), Q15700
T1 chain: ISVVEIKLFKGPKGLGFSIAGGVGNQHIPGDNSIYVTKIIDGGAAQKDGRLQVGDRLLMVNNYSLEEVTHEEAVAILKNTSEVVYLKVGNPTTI
ASSAY_METHOD_TEXT: G assay titration, PDZ 0.5 ug/ml
OBSERVABLE: Kd (nM)
Please give a number only; it is taken to be in nM.

Ask: Need Kd, item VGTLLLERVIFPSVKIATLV (modifications not checked) [AdenoE4 typ9]
Result: 50
